Data origin: PubChem BioAssay (NCI)

As shown below, each of these compounds has a reported growth value.
# Test system: ACHN renal
# Assay comment: NCI-60 one-dose screen, 48 h (100 = growth as untreated, 0 = no growth, -100 = all killed)
# Cond: 10 µM unless noted
About 83,000 compounds went through this panel and 20% of them were active in at least one assay; those are over-represented in the sample as a whole.
Measured property: growth (%)

1) Brc1ccc(Oc2ccc(Nc3ncnc4onc(-c5ccccc5)c34)cc2)cc1 :: 105
2) CC(C)Cn1c2c(c(=S)[nH]c1=O)CCC2 :: 103
3) CCOC(=O)C1=C(C)c2ccc(OC)c(OC)c2C1 :: 103
4) CC/C(=C(\CC)c1ccc(OCC[N+](C)(C)C)cc1)c1ccc(OC)cc1 :: 98
5) O=c1c2cc(F)cc(Cl)c2sc2c(Cl)nc3ccccc3c12 :: 95.3
6) Nc1ccccc1-c1ccc(-c2ccc(Cl)cc2)c2c1[nH]c1ccccc12 :: 75.2
7) CCOC(=O)CSc1c(-c2ccccc2)c2cc(Cl)ccc2[nH]c1=O :: 97.6
8) CCCCC1COc2cccc3c2N1C=C/C3=C\C(=O)N(C)c1ccccc1 (stereo unspecified) :: 68.9
9) COCCN(C(=O)Cc1cccs1)C(C(=O)NCc1ccc(OC)cc1)c1ccc(C(C)C)cc1 (stereo unspecified) :: 87.1
10) Oc1ccc(-c2nc(-c3ccc4oc5ccc(-c6[nH]c(-c7ccc(O)cc7)nc6-c6ccccc6)cc5c4c3)c(-c3ccccc3)[nH]2)cc1 :: 73.5
11) Nc1nc(-c2ccccc2Br)nn1-c1nc2ccccc2s1 :: 98.3
12) O=C1C(Cl)=C(NCc2ccco2)C(=O)c2ccccc21 :: 93.8
13) Cc1ccc2nc(NC(=O)CSC(=S)N3CCN(c4ccccc4)CC3)sc2c1 :: 100
14) Cc1ccc2sc3c(NCCCNCCO)nc4ccccc4c3c(=O)c2c1 :: 6.81
15) c1ccc(CNc2nc(Nc3ccccc3)nc3ccccc23)cc1 :: 33.7
16) CN(C)/C=C1\SC(=Nc2ccc(Cl)cc2)NC1=O :: 103
